molecular target: T1, recombinant SARS-CoV-2 Spike RBD domain, BA.2.75.2 variant (SARS-CoV-2); assay: ELISA on coated RBD
T1 construct: also called RBD BA.2.75.2 variant

{"columns": ["BINDER", "Binding AUC"],
 "data": [
  ["SPK002M C1 antibody (antibody, human IgG1, kappa, V domains shown) VH: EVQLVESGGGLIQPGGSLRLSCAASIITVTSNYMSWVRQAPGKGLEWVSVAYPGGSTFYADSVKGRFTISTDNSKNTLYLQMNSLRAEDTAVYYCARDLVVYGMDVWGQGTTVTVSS VL: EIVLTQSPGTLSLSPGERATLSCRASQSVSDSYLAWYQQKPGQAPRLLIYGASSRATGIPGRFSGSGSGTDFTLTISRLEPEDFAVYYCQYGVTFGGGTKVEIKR", 28],
  ["SPK002M A1 antibody (antibody, human IgG1, kappa, V domains shown) VH: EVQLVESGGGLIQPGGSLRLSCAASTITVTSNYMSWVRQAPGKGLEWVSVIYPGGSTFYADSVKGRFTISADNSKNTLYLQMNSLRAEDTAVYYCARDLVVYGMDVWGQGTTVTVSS VL: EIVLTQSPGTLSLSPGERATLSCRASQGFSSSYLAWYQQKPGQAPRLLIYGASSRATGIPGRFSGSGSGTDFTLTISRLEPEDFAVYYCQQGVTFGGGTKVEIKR", 34]
]}
